Quick reference: Percent Effect of the listed items.
Tested on: Wolbachia pipientis
assay-summary: Anti-Wolbachia Cell-Based Screen
Assay type: functional
Parameters: scale not given: in the data most compounds retested in dose-response had high values
run-conditions: 5 µM
Screen size: about 48,000 compounds; about 13,000 (27%) showed an effect of 50% or more. Some of the results follow.
Report only the number, with the unit % understood.

Worked examples follow.
CCc1cc(O)n2nc(C3CCN(C(=O)c4ccncc4)CC3)cc2n1; 121.2
O=C(NCc1nnc2ccccn12)N1CCOC(c2cccs2)C1 (stereo not drawn); -3.405

Can you look up Percent Effect on Wolbachia pipientis for "CC[C@H]1CN(C(=O)c2cccnc2)CC[C@H]1CC(=O)NCCOC" ?
-6.846

Hey, just so you know, these numbers are from ChEMBL document CHEMBL3988442.
